Experiment: qHTS assay to identify small molecule agonists of the peroxisome proliferator-activated receptor delta (PPARd) signaling pathway - cell viability counter screen (AID 743211); note: nearly all actives have a fitted effect of over 55% in size
Conditions: PPARd-bla HEK293H viability, CellTiter-Glo luminescence, 17 h; series mostly up to 62.6 µM
Excerpt: U.S. Tox21 Program National Center for Advancing Translational Sciences [NCATS] NIH Chemical Genomics Center [NCGC] U.S. Environmental Protection Agency [EPA] National Institutes of Environmental Health Sciences [NIEHS] National Toxicology Program [NTP] U.S. Food and Drug Administration [FDA] […]
Records with an inconclusive call do not appear. The source made the active and inactive calls. Calls come from the whole dose curve; as a rule, active = well fitted cell-killing curve with a large enough effect in the repeat runs; inconclusive = weak or mixed curves; inactive = no such curve, though single readings can be large or run the other way.
Labels: active, inactive

{"columns": ["Test Smiles", "Category Label"],
 "data": [
  ["O=C1C=CC(=O)N1c1ccc(Cc2ccc(N3C(=O)C=CC3=O)cc2)cc1", "active"],
  ["C[C@H]1[C@H]2CC[C@H]3[C@@H]4CC=C5C[C@@H](N(C)C)CC[C@]5(C)[C@H]4CC[C@]23CN1C", "inactive"],
  ["NC(=O)C1(N2CCCCC2)CCN(CCCN2c3ccccc3CCc3ccc(Cl)cc32)CC1", "active"],
  ["CSc1cnc(C)cn1", "inactive"],
  ["CCCCCCCCCCCCCCCC[N+](C)(C)CCN(Cc1ccc(OC)cc1)c1ncccn1", "active"]
]}
